Catalogue of Percentage of residence time in open arms readings, one per entry.
System: chronic unpredictable stress (CUS) model in rats
method description: Elevated plus-maze (EPM) anxiety test in CUS model in rats
Format: in vivo
test parameters: 30 mg/kg intragastric daily
measured endpoint: Percentage of residence time in open arms

molecule: COc1ccc2cc1Oc1ccc(cc1)CC1c3cc(c(OC)cc3CCN1C)Oc1c(OC)c(OC)c(OC)c3c1C(C2)N(C)CC3 (stereo not drawn) [5,7-dimethoxy-fangchinoline, reference compound]
system name: chronic unpredictable stress (CUS) model in rats
observed value: 43.2 ± 4.1%
--
molecule: COc1cc2c3cc1Oc1c(OC)c(OC)cc4c1[C@@H](Cc1ccc(O)c(c1)Oc1ccc(cc1)C[C@@H]3N(C)CC2)N(C)CC4 [berbamine, reference compound]
system name: chronic unpredictable stress (CUS) model in rats
observed value: 41.0 ± 3.0%
--
molecule: CCCCOc1c(OC)cc2c3c1Oc1cc4c(cc1OC)CCN(C)C4Cc1ccc(cc1)Oc1cc(ccc1OC)CC3N(C)CC2 (stereo not drawn)
system name: chronic unpredictable stress (CUS) model in rats
observed value: 61.5 ± 3.0^##,$$ %

###

System: chronic unpredictable stress (CUS) model in rats
method description: Autonomous movement in CUS model in rats
Format: in vivo
test parameters: 30 mg/kg intragastric daily, 7 days
measured endpoint: Autonomous movement Distance

molecule: COc1cc(Br)c2cc1Oc1ccc(cc1)CC1c3cc(c(OC)cc3CCN1C)Oc1c(OC)c(OC)c(Br)c3c1C(C2)N(C)CC3 (stereo not shown) [Compound 2, 5,14-dibromo-7-methoxy fangchinoline]
observed value: 12062.32 ± 903.42^##,$$ mm

molecule: CCCCOc1c(OC)cc2c3c1Oc1cc4c(cc1OC)CCN(C)C4Cc1ccc(cc1)Oc1cc(ccc1OC)CC3N(C)CC2 (stereo not shown) [Compound 7, 7-butoxy fangchinoline]
observed value: 11768.25 ± 903.41^##,$$ mm

molecule: COc1ccc2cc1Oc1ccc(cc1)CC1c3cc(c(OC)cc3CCN1C)Oc1c(OC)c(OC)c(Cl)c3c1C(C2)N(C)CC3 (stereo not shown) [Compound 1, 5-chloro-7-methoxy fangchinoline]
observed value: 10347.64 ± 923.01^##,$$ mm

molecule: COc1ccc2cc1Oc1ccc(cc1)CC1c3cc(c(OC)cc3CCN1C)Oc1c(OC)c(OC)c(OC)c3c1C(C2)N(C)CC3 (stereo not shown) [5,7-dimethoxy-fangchinoline, reference compound]
observed value: 1189.64 ± 315.84 mm

molecule: CCOc1c(OC)cc2c3c1Oc1cc4c(cc1OC)CCN(C)C4Cc1ccc(cc1)Oc1cc(ccc1OC)CC3N(C)CC2 (stereo not shown) [Compound 3, 7-ethoxy fangchinoline]
observed value: 14636.14 ± 812.31^##,$$ mm

molecule: COc1ccc2cc1Oc1ccc(cc1)CC1c3cc(c(OC)cc3CCN1C)Oc1c(OC(C)C)c(OC)cc3c1C(C2)N(C)CC3 (stereo not shown) [Compound 8, 7-isopropoxy fangchinoline]
observed value: 13053.78 ± 1005.46^##,$$ mm

molecule: CCOc1c(OC)c(Br)c2c3c1Oc1cc4c(cc1OC)CCN(C)C4Cc1ccc(cc1)Oc1cc(c(Br)cc1OC)CC3N(C)CC2 (stereo not shown) [Compound 5, 5,14-dibromo-7-ethoxy fangchinoline]
observed value: 14561.84 ± 807.52^##,$$ mm

molecule: CCCOc1c(OC)cc2c3c1Oc1cc4c(cc1OC)CCN(C)C4Cc1ccc(cc1)Oc1cc(ccc1OC)CC3N(C)CC2 (stereo not shown) [Compound 6, 7-propoxy fangchinoline]
observed value: 12566.27 ± 764.42^##,$$ mm

molecule: COc1ccc2cc1Oc1ccc(cc1)C[C@H]1c3cc(c(OC)cc3CCN1C)Oc1c(OC)c(OC)cc3c1[C@H](C2)N(C)CC3 [tetrandrine, reference compound]
observed value: 1027.36 ± 456.76 mm

molecule: COc1cc2c3cc1Oc1c(OC)c(OC)cc4c1[C@@H](Cc1ccc(O)c(c1)Oc1ccc(cc1)C[C@@H]3N(C)CC2)N(C)CC4 [berbamine, reference compound]
observed value: 1387.56 ± 584.24 mm
